B1: MIA2 (parent)
chain: SVIEPVQESSFRSRKIAVEDENDL

# Variants of: B1
# RUN DESCRIPTION: protein stability index of a GFP-peptide fusion (GPS, HEK-293T) (PSI 1-6); higher = more stable;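 also: lentivirally expressed fusions sorted by FACS into six bins by GFP to DsRed ratio, PSI derived from sequencing read proportions per bin multiplied by bin number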
# CONDITION SET: c terminus: a fixed tail appended
protein stability index values, listed per item

- INPUT SEQUENCE: "SVIEWVQESSFRSRKIAVEDENDL"
  protein stability index: 3.49
- INPUT SEQUENCE: "SVIEPVQESSFRSRKIAVEDENDS"
  protein stability index: 5.88
- INPUT SEQUENCE: "SVIEPVQESSFRMRKIAVEDENDL"
  protein stability index: 4.86
- INPUT SEQUENCE: "SVIEPVQESSKRSRKIAVEDENDL"
  protein stability index: 5.4
- INPUT SEQUENCE: "SVIEPVQESSFRSRKIAVEDENDK"
  protein stability index: 5.12
- INPUT SEQUENCE: "SVIEPVQESCFRSRKIAVEDENDL"
  protein stability index: 5.34
- INPUT SEQUENCE: "SLIEPVQESSFRSRKIAVEDENDL"
  protein stability index: 5.24
- INPUT SEQUENCE: "SVIEPVQESSFRSRKIAVEDEGDL"
  protein stability index: 5.04
- INPUT SEQUENCE: "SVIEPVQESSFRSAKIAVEDENDL"
  protein stability index: 5.53
- INPUT SEQUENCE: "SVIEPVQESSFRKRKIAVEDENDL"
  protein stability index: 5.18
- INPUT SEQUENCE: "SVIESVQESSFRSRKIAVEDENDL"
  protein stability index: 5.03
- INPUT SEQUENCE: "SVIEPVQESSFRSRKIAVSDENDL"
  protein stability index: 5.31
- INPUT SEQUENCE: "SVIEPVQESSFRSRKIMVEDENDL"
  protein stability index: 5.55
- INPUT SEQUENCE: "SVIEPVQESSFRSRKIAVEDEQDL"
  protein stability index: 5.77
- INPUT SEQUENCE: "SVIEPVQESSFRSRKGAVEDENDL"
  protein stability index: 5.42
- INPUT SEQUENCE: "SVIEPVQESSFRSRKIAVEDEMDL"
  protein stability index: 4.74
- INPUT SEQUENCE: "SVIEKVQESSFRSRKIAVEDENDL"
  protein stability index: 4.38
- INPUT SEQUENCE: "SVIEPVQESSFRSRKIDVEDENDL"
  protein stability index: 5.43
- INPUT SEQUENCE: "SVIEPVQESSFRSRKIAVEDLNDL"
  protein stability index: 4.62
- INPUT SEQUENCE: "SVIEPVQESSFRSTKIAVEDENDL"
  protein stability index: 5.31
- INPUT SEQUENCE: "SVIEPVQESSFRSEKIAVEDENDL"
  protein stability index: 5.32
- INPUT SEQUENCE: "SVIEPVQESVFRSRKIAVEDENDL"
  protein stability index: 5.28
- INPUT SEQUENCE: "SVIEPVQESSFRSRKIAVEDTNDL"
  protein stability index: 5.19
- INPUT SEQUENCE: "SVIEPVQESSFRSRSIAVEDENDL"
  protein stability index: 5.61
- INPUT SEQUENCE: "SVIEPVQESSFRSRKFAVEDENDL"
  protein stability index: 5.12
- INPUT SEQUENCE: "SVIEPVVESSFRSRKIAVEDENDL"
  protein stability index: 5.28
- INPUT SEQUENCE: "SVIEPVQESSFRSRKIAVEDNNDL"
  protein stability index: 4.74
- INPUT SEQUENCE: "SVIEPVQESSFRSRWIAVEDENDL"
  protein stability index: 4.44
- INPUT SEQUENCE: "SVIEYVQESSFRSRKIAVEDENDL"
  protein stability index: 3.78
- INPUT SEQUENCE: "SVIEVVQESSFRSRKIAVEDENDL"
  protein stability index: 4.95
- INPUT SEQUENCE: "SVIEPVQESSFRSRKIAIEDENDL"
  protein stability index: 5.3
- INPUT SEQUENCE: "SVIEPVLESSFRSRKIAVEDENDL"
  protein stability index: 5.29
- INPUT SEQUENCE: "SVIEPVGESSFRSRKIAVEDENDL"
  protein stability index: 5.13
- INPUT SEQUENCE: "SVIEPVQESSFQSRKIAVEDENDL"
  protein stability index: 5.44
- INPUT SEQUENCE: "SVIEPVQESSFRSRKIAVEDQNDL"
  protein stability index: 5.29
- INPUT SEQUENCE: "SVIEPVQESSFRSRKIAVVDENDL"
  protein stability index: 5.03
- INPUT SEQUENCE: "SVIEPVQESSFRSRKIAVEDENDH"
  protein stability index: 5
- INPUT SEQUENCE: "SVIEPVQESSFRIRKIAVEDENDL"
  protein stability index: 5.11
- INPUT SEQUENCE: "SVIEPVTESSFRSRKIAVEDENDL"
  protein stability index: 5.32
- INPUT SEQUENCE: "SVIEPVQESSFRSRKIAVEHENDL"
  protein stability index: 4.35
- INPUT SEQUENCE: "SVIEPVQESSFRSRKIAVEFENDL"
  protein stability index: 3.83
- INPUT SEQUENCE: "SVIEPIQESSFRSRKIAVEDENDL"
  protein stability index: 5.34
- INPUT SEQUENCE: "SVIEPVQESSFRSRKKAVEDENDL"
  protein stability index: 5.01
- INPUT SEQUENCE: "SVIEPVQESSFRSRKIAVCDENDL"
  protein stability index: 4.62
- INPUT SEQUENCE: "SVIEPVQESEFRSRKIAVEDENDL"
  protein stability index: 5.27
- INPUT SEQUENCE: "SVIEPVQESSFRSRKIIVEDENDL"
  protein stability index: 5.05
- INPUT SEQUENCE: "SVIEPVQESSFRSRKIAVEDETDL"
  protein stability index: 5.33
- INPUT SEQUENCE: "SVIEPVQESSFRSRKIAVEDEYDL"
  protein stability index: 4.53
- INPUT SEQUENCE: "SVIEPVQESSFRSRKIASEDENDL"
  protein stability index: 5.69
- INPUT SEQUENCE: "SVIEPVQERSFRSRKIAVEDENDL"
  protein stability index: 5.45
- INPUT SEQUENCE: "SVIEPVQESSFRSRPIAVEDENDL"
  protein stability index: 5.65
- INPUT SEQUENCE: "SVIEPVQESSFRSRKIAVEDELDL"
  protein stability index: 4.8
- INPUT SEQUENCE: "SVIEPVQESSFRSRKIAVEPENDL"
  protein stability index: 3.94
- INPUT SEQUENCE: "SVIEPVQESSFRSRKIAVEDEVDL"
  protein stability index: 5.73
- INPUT SEQUENCE: "SVIEPVNESSFRSRKIAVEDENDL"
  protein stability index: 4.82
- INPUT SEQUENCE: "SVIEPVSESSFRSRKIAVEDENDL"
  protein stability index: 5.46
- INPUT SEQUENCE: "SVIEPVQESSFRSRKIADEDENDL"
  protein stability index: 4.18
- INPUT SEQUENCE: "SVIEPVQESSFRSRKIAVEDEEDL"
  protein stability index: 5.08
- INPUT SEQUENCE: "SVIEPVQESSFRSIKIAVEDENDL"
  protein stability index: 5.04
- INPUT SEQUENCE: "SAIEPVQESSFRSRKIAVEDENDL"
  protein stability index: 5.31
- INPUT SEQUENCE: "SVIEPVQETSFRSRKIAVEDENDL"
  protein stability index: 5.19
- INPUT SEQUENCE: "LVIEPVQESSFRSRKIAVEDENDL"
  protein stability index: 4.33
- INPUT SEQUENCE: "SVIAPVQESSFRSRKIAVEDENDL"
  protein stability index: 5.68
- INPUT SEQUENCE: "SVIEPVQESSFRSRKIAVYDENDL"
  protein stability index: 4.67
- INPUT SEQUENCE: "SVIEPVQESSFRSWKIAVEDENDL"
  protein stability index: 4.13
- INPUT SEQUENCE: "SVIEPVQESSFRSRKIAVEDEADL"
  protein stability index: 5.47
- INPUT SEQUENCE: "SVIEPVCESSFRSRKIAVEDENDL"
  protein stability index: 3.93
- INPUT SEQUENCE: "SVIEPVQESSFRSRKIEVEDENDL"
  protein stability index: 5.68
- INPUT SEQUENCE: "SVIEPVQESPFRSRKIAVEDENDL"
  protein stability index: 5.02
- INPUT SEQUENCE: "SVIEPVQESSFRSGKIAVEDENDL"
  protein stability index: 5.55
- INPUT SEQUENCE: "SVIEPVQESSFRSRKIAVPDENDL"
  protein stability index: 5.32
- INPUT SEQUENCE: "SVIEPVQESSFRSRKISVEDENDL"
  protein stability index: 4.86
- INPUT SEQUENCE: "SVIEPVQESSFRSRKIAVETENDL"
  protein stability index: 5.38
- INPUT SEQUENCE: "SVIEPVQESSFRSRKPAVEDENDL"
  protein stability index: 5.04
- INPUT SEQUENCE: "SVIEPVQESSFRSRKIAVERENDL"
  protein stability index: 4.94
- INPUT SEQUENCE: "SVIEPVQESSFRSRKIAVFDENDL"
  protein stability index: 4.53
- INPUT SEQUENCE: "SVIEPVQESSFRSRKIALEDENDL"
  protein stability index: 4.56
- INPUT SEQUENCE: "SEIEPVQESSFRSRKIAVEDENDL"
  protein stability index: 5.22
- INPUT SEQUENCE: "SVIEPVQESSFRSRKIAVEDEDDL"
  protein stability index: 5.84
- INPUT SEQUENCE: "SVIEPVQESSFRNRKIAVEDENDL"
  protein stability index: 5.61
- INPUT SEQUENCE: "SVIEPVQESSFRSRKIAVEDENDD"
  protein stability index: 5.26
- INPUT SEQUENCE: "SVIEPVQESSERSRKIAVEDENDL"
  protein stability index: 5.84
- INPUT SEQUENCE: "SVIEPSQESSFRSRKIAVEDENDL"
  protein stability index: 5.27
- INPUT SEQUENCE: "SVIEPVQESSFRLRKIAVEDENDL"
  protein stability index: 5.19
- INPUT SEQUENCE: "SVIEPVQESSFRSRKIAVEDENDY"
  protein stability index: 4.92
- INPUT SEQUENCE: "SVIRPVQESSFRSRKIAVEDENDL"
  protein stability index: 5
- INPUT SEQUENCE: "SVIEPVQESSARSRKIAVEDENDL"
  protein stability index: 4.79
- INPUT SEQUENCE: "SVIEPVQESSFRSRDIAVEDENDL"
  protein stability index: 5.52
- INPUT SEQUENCE: "SVIEPVQENSFRSRKIAVEDENDL"
  protein stability index: 5.09
- INPUT SEQUENCE: "SYIEPVQESSFRSRKIAVEDENDL"
  protein stability index: 5.26
- INPUT SEQUENCE: "SVIEPVQESSFRSRKIAVTDENDL"
  protein stability index: 5.02

Where these numbers come from: the supplement of paper PMC10567573
